test: Formation of 1,5-cz-[Ln(Lig)] from Lig and Ln^III ions (metal dependent click-zip), MOPS/NaOH buffer pH 7.0, analytical HPLC (Charts 1, 2); details: Dy^III; after 1 week at 80° C.; MOPS/NaOH buffer pH 7.0
Result Type: conversion to 1,5-cz-[Ln(Lig)], Dy^III (%)

1) [N-]=[N+]=NCc1cc(-c2ccccc2)cc(CN2CCN(CC(=O)O)CCN(Cc3cccc(C#CCN)n3)CCN(CC(=O)O)CC2)n1 = 65
2) C#Cc1cccc(CN2CCN(CCC(=O)O)CCN(Cc3cccc(CN=[N+]=[N-])n3)CCN(CCC(=O)O)CC2)n1 = 0
3) C#Cc1cccc(CN2CCN(CP(=O)(O)c3ccccc3)CCN(Cc3cccc(CN=[N+]=[N-])n3)CCN(CP(=O)(O)c3ccccc3)CC2)n1 = 37
4) C#CCNC(=O)CN1CCN(CC(=O)O)CCN(Cc2cc(-c3ccccc3)cc(CN=[N+]=[N-])n2)CCN(CC(=O)O)CC1 = 0
5) [N-]=[N+]=NCc1cccc(CN2CCN(CC(=O)O)CCN(Cc3cccc(C#CC4CC4)n3)CCN(CC(=O)O)CC2)n1 = 65
6) C#Cc1cccc(CN2CCN(CC(N)=O)CCN(Cc3cc(-c4ccccc4)cc(CN=[N+]=[N-])n3)CCN(CC(N)=O)CC2)n1 = 0
7) CC(C)(C)C#Cc1cccc(CN2CCN(CC(=O)O)CCN(Cc3cccc(CN=[N+]=[N-])n3)CCN(CC(=O)O)CC2)n1 = 76
8) C#Cc1cccc(CN2CCN(CC(=O)O)CCN(Cc3cc(C(=O)OC)cc(CN=[N+]=[N-])n3)CCN(CC(=O)O)CC2)n1 = 0
9) C#Cc1cccc(CN2CCN(CC(=O)O)CCN(Cc3cccc(CN=[N+]=[N-])n3)CCN(CC(=O)O)CC2)n1 = 94
10) C#Cc1cccc(CN2CCN(CC(=O)O)CCN(Cc3cc(-c4ccc(C(=O)O)cc4)cc(CN=[N+]=[N-])n3)CCN(CC(=O)O)CC2)n1 = 93
11) C#Cc1cccc(CN2CCN(CC(=O)NCC(=O)O)CCN(Cc3cc(-c4ccccc4)cc(CN=[N+]=[N-])n3)CCN(CC(=O)NCC(=O)O)CC2)n1 = 18
12) C#Cc1cccc(CN2CCN(CC(=O)O)CCN(Cc3cc(N(C)C)cc(CN=[N+]=[N-])n3)CCN(CC(=O)O)CC2)n1 = 96
13) C#CCN(CC#C)CCN1CCN(CC(=O)O)CCN(Cc2cc(-c3ccccc3)cc(CN=[N+]=[N-])n2)CCN(CC(=O)O)CC1 = 20
14) C#Cc1cccc(CN2CCN(CC(=O)O)CCN(Cc3cc(-c4ccccc4)cc(CN=[N+]=[N-])n3)CCN(CC(=O)O)CC2)n1 = 92

---

Form field: conversion to 1,5-cz-[Ln(Lig)], Tb^III (one value per entry).
assay: Formation of 1,5-cz-[Ln(Lig)] from Lig and Ln^III ions (metal dependent click-zip), MOPS/NaOH buffer pH 7.0, analytical HPLC (Charts 1, 2); settings: Tb^III; after 1 hour at 80° C.; MOPS/NaOH buffer pH 7.0
Result Type: conversion to 1,5-cz-[Ln(Lig)], Tb^III

1. C#Cc1cccc(CN2CCN(CC(=O)O)CCN(Cc3cccc(CN=[N+]=[N-])n3)CCN(CP(=O)(O)O)CC2)n1 = 17%
2. C#Cc1cccc(CN2CCN(CP(=O)(O)OCC)CCN(Cc3cccc(CN=[N+]=[N-])n3)CCN(CP(=O)(O)OCC)CC2)n1 = 18%
3. [N-]=[N+]=NCc1cccc(CN2CCN(CC(=O)O)CCN(Cc3cccc(C#CC45CC6CC(CC(C6)C4)C5)n3)CCN(CC(=O)O)CC2)n1 = 1%
4. C#Cc1cccc(CN2CCN(CC(=O)O)CCN(Cc3cc(C(F)(F)F)cc(CN=[N+]=[N-])n3)CCN(CC(=O)O)CC2)n1 = 10%
5. [N-]=[N+]=NCc1cccc(CN2CCN(CC(=O)O)CCN(Cc3cccc(C#CC4CC4)n3)CCN(CC(=O)O)CC2)n1 = 1%
6. [N-]=[N+]=NCc1cccc(CN2CCN(CC(=O)O)CCN(Cc3cccc(C#CC4CCNCC4)n3)CCN(CC(=O)O)CC2)n1 = 1%
7. C#CCNC(=O)CN1CCN(CC(=O)O)CCN(Cc2cc(-c3ccccc3)cc(CN=[N+]=[N-])n2)CCN(CC(=O)O)CC1 = 0%

---

Form field: conversion to 1,5-cz-Lig isomer, Cs^I (one value per entry).
experiment: Alkali metal dependent formation of 1,5-cz-Lig and 1,4-cz-Lig isomers from Lig at pH 10.2 (Chart 14); assay type: physicochemical; conditions: B: 1 day at 80° C.; Borate/(M^I)2CO3 buffer pH 10.2
Result Type: conversion to 1,5-cz-Lig isomer, Cs^I (%)

1. C#CCNC(=O)CN1CCN(CC(=O)O)CCN(Cc2cc(-c3ccccc3)cc(CN=[N+]=[N-])n2)CCN(CC(=O)O)CC1 = 11
2. C#Cc1cccc(CN2CCNCCN(Cc3cccc(CN=[N+]=[N-])n3)CCN(CC(=O)O)CC2)n1 = 13
3. C#Cc1cccc(CN2CCN(CP(=O)(O)OCC)CCN(Cc3cccc(CN=[N+]=[N-])n3)CCN(CP(=O)(O)OCC)CC2)n1 = 10

---

Form field: conversion to 1,5-cz-Lig isomer, Na^I (one value per entry).
experiment: Alkali metal dependent formation of 1,5-cz-Lig and 1,4-cz-Lig isomers from Lig at pH 10.2 (Chart 14); format: physicochemical; conditions: B: 1 day at 80° C.; Borate/(M^I)2CO3 buffer pH 10.2
Result Type: conversion to 1,5-cz-Lig isomer, Na^I (%)

1. C#CCNC(=O)CN1CCN(CC(=O)O)CCN(Cc2cc(-c3ccccc3)cc(CN=[N+]=[N-])n2)CCN(CC(=O)O)CC1 = 9
2. C#Cc1cccc(CN2CCNCCN(Cc3cccc(CN=[N+]=[N-])n3)CCN(CC(=O)O)CC2)n1 = 75
3. C#Cc1cccc(CN2CCN(CP(=O)(O)O)CCN(Cc3cccc(CN=[N+]=[N-])n3)CCN(CP(=O)(O)O)CC2)n1 = 25
4. C#Cc1cccc(CN2CCN(CP(=O)(O)c3ccccc3)CCN(Cc3cccc(CN=[N+]=[N-])n3)CCN(CP(=O)(O)c3ccccc3)CC2)n1 = 89
5. C#Cc1cccc(CN2CCN(CP(=O)(O)OCC)CCN(Cc3cccc(CN=[N+]=[N-])n3)CCN(CP(=O)(O)OCC)CC2)n1 = 69
6. C#Cc1cccc(CN2CCN(CC(=O)O)CCN(Cc3cc(-c4ccccc4)cc(CN=[N+]=[N-])n3)CCN(CC(=O)O)CC2)n1 = 85
7. C#Cc1cccc(CN2CCN(CC(=O)O)CCN(Cc3cccc(CN=[N+]=[N-])n3)CCN(CP(=O)(O)O)CC2)n1 = 81

---

test: Dissociation of chelates in aq. 1.0M HCl at 80° C. (acid decomplexation kinetic inertness) (Chart 18); format: physicochemical; details: 1 hour
Result Type: fraction of intact chelate (%)

1. O=C1C[N@@]2CC[N@]3CC[N@@](CC[N@](CC2)Cc2cccc(n2)-c2cnnn2Cc2cc(-c4ccccc4)cc(n2)C3)CC(=O)[O][Sm][O]1 = 62
2. O=C([O-])CN1CCN2CCN(CC(=O)[O-])CCN(CC1)Cc1cccc(n1)-c1cnnn1Cc1cc(-c3ccccc3)cc(n1)C2.[Pb+2] = 0
3. O=C1C[N@@]2CC[N@]3CC[N@@](CC[N@](CC2)Cc2cccc(n2)-c2cnnn2Cc2cc(-c4ccccc4)cc(n2)C3)CC(=O)[O][Gd][O]1 = 98
4. O=C1C[N@@]2CC[N@]3CC[N@@](CC[N@](CC2)Cc2cccc(n2)-c2cnnn2Cc2cc(-c4ccccc4)cc(n2)C3)CC(=O)[O][Ho][O]1 = 100
5. O=C([O-])CN1CCN2CCN(CC(=O)[O-])CCN(CC1)Cc1cccc(n1)-c1cnnn1Cc1cc(-c3ccccc3)cc(n1)C2.[Zn+2] = 0
6. O=C1C[N@@]2CC[N@]3CC[N@@](CC[N@](CC2)Cc2cccc(n2)-c2cnnn2Cc2cc(-c4ccccc4)cc(n2)C3)CC(=O)[O][Lu][O]1 = 100
7. O=C1C[N@@]2CC[N@]3CC[N@@](CC[N@](CC2)Cc2cccc(n2)-c2cnnn2Cc2cc(-c4ccccc4)cc(n2)C3)CC(=O)[O][Eu][O]1 = 92
8. O=C1C[N@@]2CC[N@]3CC[N@@](CC[N@](CC2)Cc2cccc(n2)-c2cnnn2Cc2cc(-c4ccccc4)cc(n2)C3)CC(=O)[O][Dy][O]1 = 100
9. O=C1C[N@@]2CC[N@]3CC[N@@](CC[N@](CC2)Cc2cccc(n2)-c2cnnn2Cc2cc(-c4ccccc4)cc(n2)C3)CC(=O)[O][Nd][O]1 = 0
10. O=C1C[N@@]2CC[N@]3CC[N@@](CC[N@](CC2)Cc2cccc(n2)-c2cn(nn2)Cc2cc(-c4ccccc4)cc(n2)C3)CC(=O)[O][Gd][O]1 = 0
11. O=C1C[N@@]2CC[N@]3CC[N@@](CC[N@](CC2)Cc2cccc(n2)-c2cnnn2Cc2cc(-c4ccccc4)cc(n2)C3)CC(=O)[O][La][O]1 = 0
12. O=P1(c2ccccc2)C[N@@]2CC[N@]3CC[N@@](CC[N@](CC2)Cc2cccc(n2)-c2cnnn2Cc2cccc(n2)C3)CP(=O)(c2ccccc2)[O][Gd][O]1 (stereo partly drawn) = 100
